- target: MBHA DNA substrate
- assay_text: Fluorescent intercalation displacement (FID) assay, ethidium bromide
- Format: binding
- measurement_parameters: FID; mean ± SD; read-out: DNA Binding (Ethidium Bromide) EC50
For each record, write down the corresponding EC50.

Use these answered entries as a reference point.
>>> reported("Cc1cc(C(O)(c2ccc(Nc3ccccc3)cc2)c2ccc(Nc3ccc(S(=O)(=O)O)cc3)cc2)ccc1N (centres unmarked) [Compound 3, reference compound]")
"4 µM"
>>> reported("Cc1ccc2nc(-c3ccc4nc(-c5ccc6nc(-c7ccc8nc(-c9ccc(N)cc9)sc8c7)sc6c5)sc4c3)sc2c1S(=O)(=O)O")
"15 µM"
>>> reported("Cc1cc2sc(-c3ccc(N)cc3)nc2cc1S(=O)(=O)O")
"> 100 µM"
>>> reported("CN1CCN(Cc2cc(CN3CCN(C)CC3)c(O)c(=O)c(CN3CCN(C)CC3)c2)CC1 [Compound 4, reference compound]")
"> 100 µM"
>>> reported("CCN(CC)c1ccc(-c2nc3ccc(-c4nc5ccc(C)c(S(=O)(=O)O)c5s4)cc3s2)cc1")
"> 100 µM"

Batch request: EC50 per item, same order as input.
1. Cc1ccc2nc(-c3ccc4nc(-c5ccc6nc(-c7ccc(N)cc7)sc6c5)sc4c3)sc2c1S(=O)(=O)O
2. Cc1ccc2nc(-c3ccc(N)cc3)sc2c1S(=O)(=O)O
3. CCOc1ccc2c(NNC(=O)c3cnccn3)c3c(nc2c1)CCCC3 [Compound 1, reference compound]
4. CCN(CC)c1ccc(-c2nc3ccc(C)c(S(=O)(=O)O)c3s2)cc1
5. Cc1cc2sc(-c3ccc4nc(-c5ccc(N)cc5)sc4c3)nc2cc1S(=O)(=O)O

# output
["55 µM", "> 100 µM", "> 100 µM", "> 100 µM", "73 µM"]

Record `Cc1ccc2nc(-c3ccc4nc(-c5ccc(N)cc5)sc4c3)sc2c1S(=O)(=O)O` . Reported EC50: > 100 µM
